# Test system: HL-60(TB) leukemia
# ASSAY_NAME: NCI tumour cell line growth inhibition, 48 h
Would you kindly list TGI for each of these molecules?
One number for each entry, in µM.

Would you please look over these solved cases?
molecule=Cn1c(-c2ccccc2)c(/C=C/C2=[N+](C)c3ccccc3C2(C)C)c2ccccc21 result=0.565
molecule=COc1ccc(NC(=O)c2sc3nc(C)c(C(=O)/C=C/c4cccc(OC)c4)cc3c2N)cc1 result=4.24

From here, focus on the item given below.
Consider the molecule shown here: Cc1cccc(C)c1N1C(=O)C(=O)C(c2nc3ccccc3s2)/C(=N/NC(=O)c2ccccc2O)C1=O (stereo unspecified) What is its recorded TGI?
43.1

###

Would you kindly list TGI for each of these compounds?
# Tested on: K-562 leukemia
# ASSAY_NAME: NCI tumour cell line growth inhibition, 48 h

Would you please look over these solved cases?
compound=CCCN(CCC)C(=O)c1nc(N)nc(-c2ccc(OC)cc2)c1-c1ccc(OC)cc1 reported_endpoint=TGI result="> 100 µM"
compound=O=C1CNC(=O)c2[nH]cnc2N1 reported_endpoint=TGI result="> 100 µM"
compound="COC(=O)C1=C(O)CCCC(C2CCCCC(=O)C2C(=O)OC)=C1 (stereo not given)" reported_endpoint=TGI result="> 100 µM"
compound="CCOC(=O)C(Cc1ccccc1)NC(=O)c1[nH]cnc1/N=N/N(C)C (stereo not given)" reported_endpoint=TGI result="> 100 µM"

Report TGI for every entry below.
1. C/C(CC(=O)Nc1ccccc1C)=N/NS(=O)(=O)c1ccc(C)cc1
2. C#CC1(O)CCC2[C@@H]3CCc4cc(Oc5nc(F)nc(-c6c7ccccc7c(SCC)n6CCC)n5)ccc4C3CC[C@@]21C (stereo not given in full)
3. O=C(O)/C(=C\c1ccc(O)cc1)c1cccc2ccccc12
4. COC(=O)c1c(C)cccc1C1CN=NC12Cc1cc(C)cc(C)c1C2=O (stereo not given)
5. c1ccc(Nc2nn3c(CCCCCCCCc4nnc5sc(Nc6ccccc6)nn45)nnc3s2)cc1
6. Cc1nc(/C=C2\C(=O)C=Cc3ccccc32)c(O)o1
7. COc1cc(C(=O)O[C@H](C(=O)NCCN(C)CCNC(=O)[C@@H](OC(=O)c2cc(OC)cc3c(C)cccc23)[C@]2(C)CO2)[C@]2(C)CO2)c2cccc(C)c2c1

["> 100 µM", "> 100 µM", "> 100 µM", "> 100 µM", "37.6 µM", "> 100 µM", "6.85 µM"]

###

Would you kindly list TGI for each of these molecules?
# Test system: SW-620 colon
# ASSAY_NAME: NCI tumour cell line growth inhibition, 48 h

molecule="Nc1ccc(COC(O)CN2CCCCC2)cc1[N+](=O)[O-] (stereo unspecified)" measured_target="SW-620 colon" result="> 100 µM"
molecule=CC(C)(C)NC(=O)/C(=C\Sc1ccccc1)c1ccccc1 measured_target="SW-620 colon" result="> 100 µM"
molecule=O=C(Nc1ccccc1Cl)c1ccc([N+](=O)[O-])cc1 measured_target="SW-620 colon" result="> 100 µM"

Report TGI for every entry below.
1. NCCCNOCCCN
2. N#C/C(=N\Nc1ccccc1)C(=O)Nc1cc(-c2ccccc2)nn1-c1ccccc1
3. CC(=O)O[C@H]1C[C@@H](OC(C)=O)[C@@](C)(O)[C@@H]2[C@@H](OC(C)=O)[C@@]3(O)[C@H](/C=C(/CO)[C@H]4O[C@H]4[C@@H](OC(C)=O)[C@@]12C)OC(=O)[C@@H]3C
4. COC1=CC(c2ccc[nH]2)=N/C1=C\c1[nH]c(C)c(CC(=O)OCc2ccccc2)c1C
5. COC(=O)c1c2c(c(C)[n+]([O-])c1C)C(=O)C=C(NCc1cccc(Cl)c1)C2=O
6. COc1cc(Cc2cnc(N)nc2N)cc(OC)c1OCCCNc1ccc([N+](=O)[O-])cc1
7. O=C1CSC(c2ccc([N+](=O)[O-])cc2)N1c1ccc(-c2ccc(-n3c(-c4ccccc4)nc4ccccc4c3=O)cc2)cc1 (stereo unspecified)

1. > 100 µM
2. > 100 µM
3. > 25 µM
4. 1.79 µM
5. 1.23 µM
6. 34.2 µM
7. > 100 µM
